Experiment: Mycobacterium tuberculosis growth inhibition, primary screen (AID 1259343)
Settings: at 10 µM, active compounds read high
About 2,900 (47%) of roughly 6,200 compounds were called active. The set was probably picked from earlier hits. The list shows a part of the results.
Catalogue of inhibition readings, one per entry.
measured_attribute: inhibition (%)

- COc1ccc(NC(=O)CSc2cc(C)ccc2C)cc1Cl: 88.7
- Cc1ccc(C(=O)C(C#N)C(=O)C2CCCC(C(F)(F)F)C2)s1 (configuration not stated): 101
- Cn1c(=NN=CC(Br)=Cc2ccccc2)sc2ccccc21: 88.2
- O=C(O)CCC1NCC2CC1CN1CCCCC21 (configuration not stated): 1.66
- C=C1/C(=N\OC(=O)Nc2ccc(C)cc2)CC2CC1C2(C)C (configuration not stated): 86.8
- Cn1c(=NN=Cc2ccccc2C(F)(F)F)sc2ccccc21: -39.7
- COc1cc(C=NN=c2sc3ccccc3n2C)cc(Br)c1O: 10.7
- Cn1c(=NN=CC(Cl)=Cc2ccccc2)sc2ccccc21: 88.7
- COc1ccc(NC(=O)CNc2cc3c(cc2Cl)OCCCO3)cc1Cl: 92.9
- C=CCc1cc([N+](=O)[O-])ccc1O: 101
- COc1ccc(NCC(=O)NCC(F)(F)F)cc1Cl: 95.5
- COc1ccc(NC(=O)CNS(=O)(=O)c2cnn(C)c2)cc1Cl: 85.8

----------
Assay: Mycobacterium tuberculosis growth inhibition, primary screen (AID 1259343)
Conditions: at 10 µM, active compounds read high
The whole screen tested about 6,200 compounds, of which about 2,900 (47%) were called active. The set was probably picked from earlier hits. The list shows a part of the results.
Think of 50% as a floor: if inhibition stands on it or above, it is class 1; beneath it, class 0.

• Cc1c2ccccc2[nH]c2c1oc1cc(=O)ccc12 = class 1
• N#CC1(NC(=O)c2ccc(-c3nc(C4CC4)no3)cc2)CCSC1 (stereo not drawn) = class 1
• CC(C)N(CC(=O)N(CCc1c[nH]c2ccccc12)Cc1ccc(C(C)(C)C)cc1)CC(O)COCc1ccco1 (stereo not drawn) = class 1
• C=CCNc1nnc(Sc2ncccc2[N+](=O)[O-])s1 = class 1
• O=C(C1CCC1)N1CCC(Cc2ccc(C(F)(F)F)cc2)CC1 = class 1
• CCCn1cc(CNC(=O)c2ccc(Cl)cn2)cn1 = class 0
• O=C(NCc1ccccc1F)C(C1CCCC1)N1CCN(C(=O)c2ccc(C(F)(F)F)cc2)CC1 (stereo not drawn) = class 0
• CC(C)(C)c1ccc(CC2CCN(C(=O)CCCl)CC2)cc1 = class 1
• COc1ccc(Nc2ccc(Nc3ccc([N+](=O)[O-])cc3[N+](=O)[O-])cc2)cc1 = class 1
• O=C(CSC1=NCCS1)N1c2ccccc2Sc2ccccc21 = class 0
• Cc1ccc(CSc2nc(CC(=O)NC3CCCC3)cs2)cc1 = class 0
• O=C(c1c(F)c(F)cc(F)c1F)N1CCC(Cc2ccc(C(F)(F)F)cc2)CC1 = class 1
• Cc1ccc(CSc2nc(CC(=O)NC(C)C)cs2)cc1 = class 1
• COc1ccc(Nc2c([N+](=O)[O-])ccc3c2=NC2(CCCCC2)N=3)cc1 = class 0
• CC(Cl)C(=O)N1CCC(Cc2ccc(C(F)(F)F)cc2)CC1 (stereo not drawn) = class 1
• Cc1cc(=O)[nH]c(Nc2nc(C)c3cc(C)c(C)cc3n2)n1 = class 0
• CCC(C)NC(=O)Cc1csc(SCc2ccc(C)cc2)n1 (stereo not drawn) = class 0
• CCCn1cc(NC(=O)c2cc(-c3ccccc3)on2)cn1 = class 1
• COc1ccc(C=NOCc2ccc(Cl)c(Cl)c2)c(OC)c1 = class 0
• CCCOc1ccc2c(c1)OCC(C(=O)Nc1cnn(C)c1)=C2 = class 0
• C(=NOCc1ccc(CON=Cc2ccccc2)cc1)c1ccccc1 = class 0
• C/C(Cl)=C\COc1cc(C)nc2ccc(Br)cc12 = class 1

----------
The compounds listed here are annotated with their inhibition.
Experiment: Mycobacterium tuberculosis growth inhibition, primary screen (AID 1259343)
Conditions: at 10 µM, active compounds read high
About 2,900 (47%) of roughly 6,200 compounds were called active. So high a share suggests a set chosen from earlier hits. The list shows a part of the results.
measured_attribute: inhibition

* S=c1[nH]nc(SCC#Cc2ccccc2)s1 | 47.6% (inactive)
* CCOC(=O)N1CCN(C(=O)CCc2ccc(-c3ccc(OC)cc3)n2-c2ccc(SC)cc2)CC1 | 13.6% (inactive)
* CNc1ccc(-c2ccc(CC#N)cc2)cn1 | 38.5% (inactive)
* COc1ccc2cc(C3CN(Cc4noc(C5CC5)n4)CCO3)ccc2c1 (stereo not drawn) | 23.6% (inactive)
* COc1cc(OC)nc(Nc2nc(C(N)Cc3ccc(F)cc3)cs2)n1 (stereo not drawn) | 71.1% (active)
* O=C(NCC(O)COc1cccc(Cl)c1Cl)C1CC1c1ccco1 (stereo not drawn) | 12.8% (inactive)
* O=S(=O)(NC(C1CC1)C1CC1)c1cccc(Br)c1 | 14.3% (inactive)
* Cc1cccc(NC(=O)/C=C/C2=C(Cl)c3ccccc3S2(=O)=O)c1C | 102% (active)
* CCCCCC12CCC(CC(=O)O)(CC1)CC2 | 70.4% (active)
* COc1ccc2c(c1)CC(c1nc(Cc3ccc(F)cc3)no1)CO2 (stereo not drawn) | 63.1% (active)
* CC(=O)c1ccc(OCc2cc(C(=O)N(C)Cc3ccon3)no2)cc1 | 80.4% (active)
* Cc1cccc2nc(COc3ccc4ccccc4c3Br)cn12 | 41.5% (inactive)
* Cc1cc(NC(=O)C(C)Nc2ccc(Br)c(C)c2)on1 (stereo not drawn) | 14% (inactive)
* CC(C)Sc1n[nH]c(=S)s1 | -48.8% (inactive)
* COc1ccc(-c2noc(CN3CCCC(C(=O)c4ccccc4)C3)n2)cc1 (stereo not drawn) | 27.8% (inactive)
* COc1ccc(-c2noc(CN3CCC(c4nc5ccccc5o4)CC3)n2)cc1 | 81.3% (active)
* CCOC(=O)CNC(=O)CSc1ncnc2c1nnn2Cc1ccccc1 | -26.6% (inactive)
* Cc1ccc2[nH]cc(-c3cccc(OCC(N)=O)c3)c2c1 | 72.6% (active)
* COc1ccc(Br)cc1CN(C)CC(=O)Nc1cc(Cl)cc(Cl)c1 | -7.89% (inactive)
* COc1ccc(-c2noc(CN3CCCC(OCc4ccccn4)C3)n2)cc1 (stereo not drawn) | 50.2% (active)
* Fc1ccc(C2CCCN2Cc2nc(-c3ccc4c(c3)OCO4)no2)cc1 (stereo not drawn) | 62.2% (active)
* COC(=O)Cc1ccc(OCC(=O)NC(C)c2ccc(Cl)cc2)cc1 (stereo not drawn) | 20.1% (inactive)
* FC(F)Oc1ccc(NC(=S)Nc2ccc3c(c2)OCCO3)cc1 | 85.3% (active)
* CCNc1nc(C(=O)N(C)Cc2ccc(Br)o2)cs1 | 8.37% (inactive)
* CCC(CC)NC(=O)c1ccc(N2CCCCC2)c([N+](=O)[O-])c1 | 96.8% (active)
* O=C(C=Cc1ccco1)Nc1sc2c(c1C(=O)O)CCCC2 | 8.18% (inactive)
* CC(C)CSc1n[nH]c(=S)s1 | 100% (active)
* O=C(NNC(=O)C1COc2ccccc2O1)c1cccc(C(F)(F)F)c1 (stereo not drawn) | -52.4% (inactive)
* Cc1oc(-c2cc3c(cc2Cl)OCO3)nc1CN1CCCC1c1ccc(F)cc1 (stereo not drawn) | 19.7% (inactive)
* S=c1[nH]nc(SCc2cccs2)s1 | 99.3% (active)
* N#CC(O[C@@H]1O[C@H](CO[C@@H]2O[C@H](CO)[C@@H](O)[C@H](O)[C@H]2O)[C@@H](O)[C@H](O)[C@H]1O)c1ccccc1 (stereo partly drawn) | -0.91% (inactive)
* C1=CCC(c2nc(Cc3cccnc3)no2)CC1 (stereo not drawn) | -4.1% (inactive)
* CCc1ccc(CN(C)C(=O)c2cc(COc3ccc(OC)cc3Cl)on2)nc1 | 73% (active)
* O=C(Nc1cccc(Cl)c1Cl)C1COc2ccccc2O1 (stereo not drawn) | -20.1% (inactive)
* Cc1cc(C)c(C#N)c(N2CCN(Cc3ccc(Cl)cc3)CC2)n1 | 47.2% (inactive)
* Clc1ccc(CN2CCN(Cc3cnc(CC4CCCC4)[nH]3)CC2)cc1 | 84.3% (active)
* O=C(Nc1sc2c(c1C(=O)O)CCCC2)c1cccnc1 | 70.5% (active)
* CCCSc1n[nH]c(=S)s1 | -46% (inactive)
* COc1ccc(CCC(=O)NNc2cccc(Cl)c2)cc1Br | 98.9% (active)
* c1cncc(COC2CCCN(Cc3nc(-c4ccc5c(c4)OCO5)no3)C2)c1 (stereo not drawn) | 75.8% (active)
* Cn1ccc(NS(=O)(=O)/C=C/c2ccc(Cl)cc2)n1 | 41.7% (inactive)
* CC(NC(=O)COc1ccccc1)c1ccccc1Cl (stereo not drawn) | 85.4% (active)
* C=C(C)CN=c1scc(C)n1N=Cc1sccc1C | 21.6% (inactive)
* Oc1ccc(NC(=S)Nc2ccc(OC(F)F)cc2)cc1 | 94.3% (active)
* Fc1ccc(SCCc2ccncc2)cc1 | 57.7% (active)
* COc1ccc(COc2ccccc2NC(C)=O)cc1Br | 36.3% (inactive)
* CCC(C)NC(=O)c1cnc(N2CCN(c3ccccc3[N+](=O)[O-])CC2)nc1OC (stereo not drawn) | 2.36% (inactive)
* Cc1cc(OCCN2CCN(Cc3ccccc3)CC2)ccc1I | 88.7% (active)
